meta.source: PubChem BioAssay (NCI)

System: M14 melanoma
assay_notes: NCI tumour cell line growth inhibition, 48 h

compound	TGI
COc1ccc(-c2cc(-c3cc(C)ccc3O)[nH]c(=O)n2)cc1	> 100 µM
CC(=O)O[C@H]1CC[C@@]2(C)C(=C[C@H](c3ccc(O)cc3)[C@H]3[C@@H]4CC[C@H](OC(C)=O)[C@@]4(C)CC[C@@H]32)C1	41.3 µM
O=C1C(c2c(O)[nH]c3ccccc23)=Nc2ccc(Br)cc21	> 100 µM
Cc1cn([C@H]2C[C@@H]3[C@@H](COC(CCl)N3O)O2)c(=O)[nH]c1=O (some centres not stated)	> 100 µM
CN(C)C1(N(C)C)Oc2c(c(=O)n(C)c(=O)n2C)C(c2ccccc2Br)C1(F)F (configuration not stated)	> 100 µM
CCOC(=O)C(C(=O)OCC)=C1N[C@H](C(=O)OCC)CS1	> 100 µM
CCC(CCN)(CCN)[N+](=O)[O-]	> 100 µM
O=C(O)c1c[nH]c2c(OCc3ccccc3)c3ccccc3c(O)c2c1=O	25.2 µM
O=C1N=NC(=O)N1c1cc(C(F)(F)F)cc(C(F)(F)F)c1	24.3 µM
CCCC1=C(C(=O)OCC)C(c2ccccc2OC)C(C#N)=C(N)O1 (configuration not stated)	> 100 µM
Cc1ccc2ccc3ccc(C)nc3c2n1	> 100 µM
CC1=CC(=O)[C@@H](O)[C@]2(C)[C@H]3[C@@]4(O)OC[C@@]35[C@@H](C[C@@H]12)OC(=O)C(OC(=O)CC1=CCCC1)[C@H]5[C@@H](C)[C@H]4O (some centres not stated)	0.103 µM
COc1ccccc1C(N)c1ccccc1 (configuration not stated)	> 100 µM
COc1ccc2c(c1)/C(=C\c1c(Cl)n(C)c3ccccc13)C(=O)N2	23.8 µM
Cc1coc2c1C(=O)C(=O)c1c-2ccc2c1CCCC2(C)C	2.46 µM
O=C1C2=Cc3ccccc3OC2(O)Oc2ccc(O)cc21 (configuration not stated)	> 100 µM
CC(=O)NC1C(OC2C(CO)OC(OCC3OC(n4ccc(N)nc4=O)C(O)C3O)C(NC(C)=O)C2O)OC(CO)C(O)C1O (configuration not stated)	> 100 µM
COC1OC(COS(=O)(=O)c2ccc(C)cc2)C(O)C(OS(=O)(=O)c2ccc(C)cc2)C1OS(=O)(=O)c1ccc(C)cc1 (configuration not stated)	> 100 µM
COc1ccc(-c2nn(-c3cccc(NC(=O)c4cccc(C(F)(F)F)c4)c3)cc2-c2ccncc2)cc1Cl	25.3 µM
Nc1ncnc2c1ncn2C1C=CC(COS(N)(=O)=O)C1 (configuration not stated)	> 100 µM
NCCCNCCSSC/C=C\CSSCCNCCCN	> 100 µM
CC1(C)CCCCCCC2CC2CCCCCC(C)(C)C1=O (configuration not stated)	> 100 µM
S=C(c1ccc2c(c1)OCO2)N1CCN(c2cccc(Cl)c2)CC1	> 100 µM
CCOC(=O)NC(=O)c1cn(CCCOC(=O)NCCCCCCNC(=O)OCCCn2cc(C(=O)NC(=O)OCC)c(=O)[nH]c2=O)c(=O)[nH]c1=O	35.4 µM
COC(=O)C(Cc1ccccc1)NC(=O)Cn1ccnc1[N+](=O)[O-] (configuration not stated)	> 100 µM
N#Cc1c(-c2cccc(Cl)c2)cc(-c2ccc(Cl)cc2)nc1N	36.9 µM
COc1cc(/C=C2\C(=O)N(c3ccccc3)c3ccccc32)cc(OC)c1OC	26.9 µM
CCOC(=O)c1c(Cl)c2c(n1Cc1cccc(OC)c1)-c1oncc1CC2	> 100 µM
CCOC(=O)c1c(-c2ccccc2)nc2c(OC)nccn12	> 100 µM
COc1ccc2c(c1)CCN1CCCc3ccc(OC)cc3C21 (configuration not stated)	> 100 µM
CCCC(=O)Nc1ccc2c(c1)CN1C(=O)c3ccccc3C1=N2	> 100 µM
C[C@H](N[C@H]1CCC[C@]1(O)C#Cc1ccc2c(c1)OCO2)c1ccccc1	> 25 µM
